- Test system: Staphylococcus saprophyticus
- TEST_DETAILS: Antibacterial activity against methicillin-susceptible coagulase-negative Staphylococcus saprophyticus clinical isolate by broth microdilution method
- Assay type: functional
VALUE_KIND: MIC90 (µg/mL)
Give your result in µg/mL as a bare value.

>>> val("CCCCCCCCCC(=O)N[C@@H](Cc1c[nH]c2ccccc12)C(=O)N[C@H](CC(N)=O)C(=O)N[C@@H](CC(=O)O)C(=O)N[C@@H]1C(=O)NCC(=O)N[C@@H](CCCN)C(=O)N[C@@H](CC(=O)O)C(=O)N[C@H](C)C(=O)N[C@@H](CC(=O)O)C(=O)NCC(=O)N[C@H](CO)C(=O)N[C@@H]([C@H](C)CC(=O)O)C(=O)N[C@@H](CC(=O)c2ccccc2N)C(=O)O[C@@H]1C")
1

Can you share its MIC90? I mean this molecule: CC(=O)NC[C@H]1CN(c2ccc(N3CCOCC3)c(F)c2)C(=O)O1 [LINEZOLID] 1

I would be grateful if you could share the reported MIC90 for CN[C@H](CC(C)C)C(=O)N[C@H]1C(=O)N[C@@H](CC(N)=O)C(=O)N[C@H]2C(=O)N[C@H]3C(=O)N[C@H](C(=O)N[C@H](C(=O)O)c4cc(O)cc(O)c4-c4cc3ccc4O)[C@H](O)c3ccc(c(Cl)c3)Oc3cc2cc(c3O[C@@H]2O[C@H](CO)[C@@H](O)[C@H](O)[C@H]2O[C@H]2C[C@](C)(N)[C@H](O)[C@H](C)O2)Oc2ccc(cc2Cl)[C@H]1O [VANCOMYCIN] . 2

Query (molecule): CCCCCCCCCCNCCN[C@@]1(C)C[C@H](O[C@H]2[C@H](Oc3c4cc5cc3Oc3ccc(cc3Cl)[C@@H](O)[C@@H](NC(=O)[C@@H](CC(C)C)NC)C(=O)N[C@@H](CC(N)=O)C(=O)N[C@H]5C(=O)N[C@H]3C(=O)N[C@H](C(=O)N[C@H](C(=O)O)c5cc(O)c(CNCP(=O)(O)O)c(O)c5-c5cc3ccc5O)[C@H](O)c3ccc(c(Cl)c3)O4)O[C@H](CO)[C@@H](O)[C@@H]2O)O[C@@H](C)[C@H]1O [TELAVANCIN] ; field requested: MIC90 0.5

----------
- Tested on: Enterococcus faecium
- TEST_DETAILS: Antibacterial activity against vancomycin- and teichoplanin-nonsusceptible Enterococcus faecium clinical isolate by broth microdilution method
- Assay type: functional
Consider the following compounds and their measured MIC50 readings.
# value in µg/mL; strip the unit string

Worked cases, answers included:
>>> val("CC1(C)S[C@@H]2[C@H](NC(=O)[C@H](N)c3ccccc3)C(=O)N2[C@H]1C(=O)O")
128
>>> val("CCCCCCCCCCNCCN[C@@]1(C)C[C@H](O[C@H]2[C@H](Oc3c4cc5cc3Oc3ccc(cc3Cl)[C@@H](O)[C@@H](NC(=O)[C@@H](CC(C)C)NC)C(=O)N[C@@H](CC(N)=O)C(=O)N[C@H]5C(=O)N[C@H]3C(=O)N[C@H](C(=O)N[C@H](C(=O)O)c5cc(O)c(CNCP(=O)(O)O)c(O)c5-c5cc3ccc5O)[C@H](O)c3ccc(c(Cl)c3)O4)O[C@H](CO)[C@@H](O)[C@@H]2O)O[C@@H](C)[C@H]1O")
4
>>> val("CCCCCCCCCC(=O)N[C@@H](Cc1c[nH]c2ccccc12)C(=O)N[C@H](CC(N)=O)C(=O)N[C@@H](CC(=O)O)C(=O)N[C@@H]1C(=O)NCC(=O)N[C@@H](CCCN)C(=O)N[C@@H](CC(=O)O)C(=O)N[C@H](C)C(=O)N[C@@H](CC(=O)O)C(=O)NCC(=O)N[C@H](CO)C(=O)N[C@@H]([C@H](C)CC(=O)O)C(=O)N[C@@H](CC(=O)c2ccccc2N)C(=O)O[C@@H]1C")
2
>>> val("CN[C@H](CC(C)C)C(=O)N[C@H]1C(=O)N[C@@H](CC(N)=O)C(=O)N[C@H]2C(=O)N[C@H]3C(=O)N[C@H](C(=O)N[C@H](C(=O)O)c4cc(O)cc(O)c4-c4cc3ccc4O)[C@H](O)c3ccc(c(Cl)c3)Oc3cc2cc(c3O[C@@H]2O[C@H](CO)[C@@H](O)[C@H](O)[C@H]2O[C@H]2C[C@](C)(N)[C@H](O)[C@H](C)O2)Oc2ccc(cc2Cl)[C@H]1O")
512

Here is the next item to consider.
May I ask what MIC50 has been recorded for "CC(=O)NC[C@H]1CN(c2ccc(N3CCOCC3)c(F)c2)C(=O)O1" ? 2

----------
- TEST_DETAILS: Antibacterial activity against Streptococcus sp. Group G clinical isolate by broth microdilution method
- Format: functional
VALUE_KIND: MIC90 (µg/mL)
Kindly answer with a numeric value in µg/mL, unit omitted.

These recorded examples may help you get a feel for the data.
>>> val("CCCCCCCCCC(=O)N[C@@H](Cc1c[nH]c2ccccc12)C(=O)N[C@H](CC(N)=O)C(=O)N[C@@H](CC(=O)O)C(=O)N[C@@H]1C(=O)NCC(=O)N[C@@H](CCCN)C(=O)N[C@@H](CC(=O)O)C(=O)N[C@H](C)C(=O)N[C@@H](CC(=O)O)C(=O)NCC(=O)N[C@H](CO)C(=O)N[C@@H]([C@H](C)CC(=O)O)C(=O)N[C@@H](CC(=O)c2ccccc2N)C(=O)O[C@@H]1C")
0.25
>>> val("CN[C@H](CC(C)C)C(=O)N[C@H]1C(=O)N[C@@H](CC(N)=O)C(=O)N[C@H]2C(=O)N[C@H]3C(=O)N[C@H](C(=O)N[C@H](C(=O)O)c4cc(O)cc(O)c4-c4cc3ccc4O)[C@H](O)c3ccc(c(Cl)c3)Oc3cc2cc(c3O[C@@H]2O[C@H](CO)[C@@H](O)[C@H](O)[C@H]2O[C@H]2C[C@](C)(N)[C@H](O)[C@H](C)O2)Oc2ccc(cc2Cl)[C@H]1O [VANCOMYCIN]")
0.5
>>> val("CCCCCCCCCCNCCN[C@@]1(C)C[C@H](O[C@H]2[C@H](Oc3c4cc5cc3Oc3ccc(cc3Cl)[C@@H](O)[C@@H](NC(=O)[C@@H](CC(C)C)NC)C(=O)N[C@@H](CC(N)=O)C(=O)N[C@H]5C(=O)N[C@H]3C(=O)N[C@H](C(=O)N[C@H](C(=O)O)c5cc(O)c(CNCP(=O)(O)O)c(O)c5-c5cc3ccc5O)[C@H](O)c3ccc(c(Cl)c3)O4)O[C@H](CO)[C@@H](O)[C@@H]2O)O[C@@H](C)[C@H]1O [TELAVANCIN]")
0.06

Entry C[C@H]1COc2c(N3CCN(C)CC3)c(F)cc3c(=O)c(C(=O)O)cn1c23.C[C@H]1COc2c(N3CCN(C)CC3)c(F)cc3c(=O)c(C(=O)O)cn1c23.O [LEVOFLOXACIN] : reported MIC90 = ? 0.5

----------
- Tested on: Staphylococcus
- TEST_DETAILS: Antibacterial activity against methicillin-resistant coagulase-negative unspeciated Staphylococcus clinical isolate by broth microdilution method
- Type: functional
VALUE_KIND: MIC50 (µg/mL)
Give the number; µg/mL is assumed, so skip it.

>>> val("CN[C@H](CC(C)C)C(=O)N[C@H]1C(=O)N[C@@H](CC(N)=O)C(=O)N[C@H]2C(=O)N[C@H]3C(=O)N[C@H](C(=O)N[C@H](C(=O)O)c4cc(O)cc(O)c4-c4cc3ccc4O)[C@H](O)c3ccc(c(Cl)c3)Oc3cc2cc(c3O[C@@H]2O[C@H](CO)[C@@H](O)[C@H](O)[C@H]2O[C@H]2C[C@](C)(N)[C@H](O)[C@H](C)O2)Oc2ccc(cc2Cl)[C@H]1O")
2
>>> val("CC(=O)NC[C@H]1CN(c2ccc(N3CCOCC3)c(F)c2)C(=O)O1")
1
>>> val("CCCCCCCCCC(=O)N[C@@H](Cc1c[nH]c2ccccc12)C(=O)N[C@H](CC(N)=O)C(=O)N[C@@H](CC(=O)O)C(=O)N[C@@H]1C(=O)NCC(=O)N[C@@H](CCCN)C(=O)N[C@@H](CC(=O)O)C(=O)N[C@H](C)C(=O)N[C@@H](CC(=O)O)C(=O)NCC(=O)N[C@H](CO)C(=O)N[C@@H]([C@H](C)CC(=O)O)C(=O)N[C@@H](CC(=O)c2ccccc2N)C(=O)O[C@@H]1C")
0.5

Can you look up the measured MIC50 of "CCCCCCCCCCNCCN[C@@]1(C)C[C@H](O[C@H]2[C@H](Oc3c4cc5cc3Oc3ccc(cc3Cl)[C@@H](O)[C@@H](NC(=O)[C@@H](CC(C)C)NC)C(=O)N[C@@H](CC(N)=O)C(=O)N[C@H]5C(=O)N[C@H]3C(=O)N[C@H](C(=O)N[C@H](C(=O)O)c5cc(O)c(CNCP(=O)(O)O)c(O)c5-c5cc3ccc5O)[C@H](O)c3ccc(c(Cl)c3)O4)O[C@H](CO)[C@@H](O)[C@@H]2O)O[C@@H](C)[C@H]1O" for me? 0.25

Reference source: ChEMBL document CHEMBL1255376
